Cited source for all entries: patent US20170363612A1

System: SET Ribosome
experiment description: TPA Reference Standard Response Modifier Assay with ribosome binding translation inhibitors, HEK293 hTRdm-fLUC#13
Type: cell-based, human
condition: Homo sapiens, HEK293; with 100 nM TPA; 6 hours; read-out: IC50, SET ribosome inhibition
value kind: IC50

Form: molecule = CC[C@H]1CN2CCc3cc(OC)c(OC)cc3[C@@H]2C[C@@H]1C[C@H]1NCCc2cc(OC)c(OC)cc21 ; IC50 = 175 nM
